Test: ATG_AP_1_CIS: Attagene CIS-FACTORIAL HepG2 Assay for human Activator Protein 1 (AP-1) (AID 2282931)
Conditions: HepG2 Attagene cis-factorial AP-1 reporter mRNA; actives raise or lower the signal
The source made the active and inactive calls. How the source made its calls: active means hit-call score of the fitted dose curve at least 0.9, where 1 is the maximum; inactive means score below 0.9.
Your answer must be one of the following: active, inactive

Which outcome was assigned to COC(=O)CSc1cc(N=c2sc(=O)n3n2CCCC3)c(F)cc1Cl in this test?
inactive

Which outcome was assigned to CC(C)(C)[C@@H](O)[C@@H](Cc1ccc(Cl)cc1)n1cncn1 in this test?
active

Which outcome was assigned to CCOC(=O)COc1cc(-n2ncc(C(F)(F)F)c(C)c2=O)c(F)cc1Cl in this test?
inactive

Which outcome was assigned to COCCO in this test?
inactive

Which outcome was assigned to CCN(Cc1c(F)cccc1Cl)c1c([N+](=O)[O-])cc(C(F)(F)F)cc1[N+](=O)[O-] in this test?
active

Origin of measurements: PubChem BioAssay (EPA / NIEHS)
